- Tested on: COLO 205
- PROCEDURE_SUMMARY: NCI tumour cell line growth inhibition, 48 h
Calls of active or inactive are those of the source. Rule as the data show it: active = GI50 up to about 1.1 µM and inactive = higher.
Lab note: assign the record to one of 1 = active, 0 = inactive

{"MOLECULE": "CC[C@@H](/C=C\\CCC1(C[C@@H](N)CCC=C(C)C)OCCO1)O[Si](C(C)C)(C(C)C)C(C)C", "ASSIGNED_CATEGORY": 0}
{"MOLECULE": "O=C1C=CC2C3C(=O)N(c4ccccc4)C(=O)C3C1N2Cc1ccccc1 (configuration not stated)", "ASSIGNED_CATEGORY": 0}
{"MOLECULE": "CC1=C(C(=O)NNC(=O)C[N+](C)(C)C)CC(C(=O)NNC(=O)C[N+](C)(C)C)=C(C)N1", "ASSIGNED_CATEGORY": 0}

What call does the record list for `C=CC[C@@]1(C(=O)OC)[C@H](Sc2ccccc2)C1(C)C` ?
0

What call does the record list for CC(=O)OCC1OC(N2C(=O)/C(=C\c3ccc(Cl)cc3)C(N)=Nc3ccccc32)C(OC(C)=O)C(OC(C)=O)C1OC(C)=O (configuration not stated) ?
0

What call does the record list for `Cc1ccc(S(=O)(=O)N2CCCSCCN(S(=O)(=O)c3ccc(C)cc3)CCCSCC2)cc1` ?
0

What call does the record list for CC(=O)O[C@@H](C1C[C@@H](C)[C@H]2[C@@](O)(O1)[C@H](O)[C@@]1(C)C3=CC[C@H]4C(C)(C)[C@@H](OC5OCC(O)C(O)C5O)CC[C@@]45C[C@@]35CC[C@]21C)C(C)(C)O (some centres not stated) ?
0

What call does the record list for `Clc1ccc(-n2nnc(C3=NCCN3)c2-c2ccccc2)cc1` ?
0

What call does the record list for CC1(C)C[C@@H]2C1CCC1(C)CC2(O)CC[C@H]1O (some centres not stated) ?
0

What call does the record list for `Cc1nc(Cl)c(Cl)c(Cl)n1` ?
1

What call does the record list for `O=C(/C=C/c1ccccc1)CCc1c(O)c2ccccc2oc1=O` ?
0

What call does the record list for N#CC(NNC(=O)c1ccccc1O)c1ccc(O)cc1 (configuration not stated) ?
0

What call does the record list for `C/C(CCN(C)C)=N\OC(=O)c1ccccc1` ?
0

What call does the record list for Cc1nn(C(=O)c2ccc(Cl)cc2)c2c1C(c1ccc(Cl)cc1)SC(=N)N2 (configuration not stated) ?
0

What call does the record list for CO/S(=N/S(=O)(=O)c1ccccc1)c1ccccc1[N+](=O)[O-] (configuration not stated) ?
0

---

- Tested on: KM12
- PROCEDURE_SUMMARY: NCI tumour cell line growth inhibition, 48 h
Activity calls are given as the source filed them. Rule as the data show it: active = GI50 up to about 1.1 µM and inactive = higher.
Lab note: assign the record to one of y (active), n (inactive)

Please review the entries below; each comes with its answer.
{"MOLECULE": "COC(=O)C1CCC(=O)N1C(c1ccc(OC)cc1)c1cc(OC)c(OC)c(OC)c1 (configuration not stated)", "ASSIGNED_CATEGORY": "y"}
{"MOLECULE": "CC(C)=C1C(=O)c2c(Cl)sc(Cl)c2C1=O", "ASSIGNED_CATEGORY": "n"}
{"MOLECULE": "COc1ccc2c(c1)/C(=C\\c1c(-c3ccccc3)nc3n1CCS3)C(=O)N2", "ASSIGNED_CATEGORY": "n"}
{"MOLECULE": "Cc1ccnc2[nH]c(-c3ccccc3)cc(=O)c12", "ASSIGNED_CATEGORY": "y"}
{"MOLECULE": "Nc1n[nH]c2nc3ccc(C(F)(F)F)cc3nc12", "ASSIGNED_CATEGORY": "n"}
{"MOLECULE": "Cc1nc2ccccc2nc1NS(=O)(=O)c1ccc(N)cc1", "ASSIGNED_CATEGORY": "n"}
{"MOLECULE": "CC(=O)N(CCN)CCN", "ASSIGNED_CATEGORY": "n"}
{"MOLECULE": "Cc1ccc(C2CC(c3ccc([N+](=O)[O-])cc3)=Nc3ccccc3S2)cc1 (configuration not stated)", "ASSIGNED_CATEGORY": "n"}
{"MOLECULE": "Cc1nc(Cl)c(Cl)c(Cl)n1", "ASSIGNED_CATEGORY": "y"}
{"MOLECULE": "O=C(O)C12CC3CC(C1)C2C=C3P(=O)(O)O (configuration not stated)", "ASSIGNED_CATEGORY": "n"}

What call does the record list for `O=C1/C(=C/c2ccc(F)cc2)CNC/C1=C\c1ccc(F)cc1` ?
y

What call does the record list for `C=CC[C@@]1(C(=O)OC)[C@H](Sc2ccccc2)C1(C)C` ?
n
